Measured values drawn from ChEMBL document CHEMBL3632508 for this set.

tested on: Isocitrate dehydrogenase [NADP] cytoplasmic (Homo sapiens), O75874 [R132H]; experiment: Inhibition of human IDH1 R132H mutant expressed in IPTG-induced Escherichia coli BL21 cells assessed as oxidation of NADPH to NADP+ after 5 mins by spectrophotometry; design: concentration or dose not given beside the values
Sequence (O75874 whole entry R132H): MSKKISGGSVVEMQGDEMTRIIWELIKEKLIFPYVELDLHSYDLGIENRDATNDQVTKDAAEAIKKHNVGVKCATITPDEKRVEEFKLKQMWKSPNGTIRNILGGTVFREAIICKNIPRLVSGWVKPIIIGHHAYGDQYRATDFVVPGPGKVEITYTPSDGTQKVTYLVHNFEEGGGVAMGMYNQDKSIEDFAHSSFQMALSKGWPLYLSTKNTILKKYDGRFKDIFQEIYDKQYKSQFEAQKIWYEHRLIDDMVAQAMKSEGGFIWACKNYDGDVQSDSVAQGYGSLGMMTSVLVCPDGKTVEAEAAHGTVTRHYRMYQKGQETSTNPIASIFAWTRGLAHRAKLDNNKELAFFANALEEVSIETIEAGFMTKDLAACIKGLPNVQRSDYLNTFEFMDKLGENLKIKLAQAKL
measured-quantity: Activity (%)
Give a bare numeral; the unit % is implied.

// lookup Activity for CC(C)CCC[C@@H](C)[C@H]1CC[C@H]2[C@@H]3CC=C4C[C@@H](O)CC[C@]4(C)[C@H]3CC[C@]12C
96.3

Data request, read-out Activity, for Cc1cc(=O)c2c(O)c3c(cc2o1)OC(C)(C)[C@@H](O)C3
105

Would you kindly share the measured Activity for COc1ccc(/C=C/C(=O)O[C@H]2[C@@H]3C=CO[C@@H](O[C@@H]4O[C@H](CO)[C@@H](O)[C@H](O)[C@H]4O)[C@@H]3[C@@]3(CO)O[C@@H]23)cc1O ?
108

Recorded Activity for O=c1cc(-c2ccc(O)cc2)oc2cc(O)c(O)c(O)c12 , please?
92

* * *

target: Isocitrate dehydrogenase [NADP] cytoplasmic (Homo sapiens) (UniProt O75874); test: Inhibition of human IDH1 expressed in IPTG-induced Escherichia coli BL21 cells assessed as reduction of NADP+ to NADPH after 5 mins by spectrophotometry; parameters: concentration or dose not given beside the values
Sequence (O75874 whole entry): as the sequence (O75874 whole entry R132H) above, with H132R counted along it
Please go through the items and note down their Activity.
Give your result in % as a bare value.

Can you look up the measured Activity of CC1(C)CC[C@]2(C(=O)O)CC[C@]3(C)C(=CC[C@@H]4[C@@]5(C)CC[C@H](O)C(C)(C)[C@@H]5CC[C@]43C)[C@@H]2C1 for me?
101

Tell me the measured Activity of CC(C)=CCOc1c2occc2cc2ccc(=O)oc12 , please.
99

Please look up its Activity: O=c1cc(-c2ccc(O)cc2)oc2cc(O)cc(O)c12
97.4

Item CC[C@H](CC[C@@H](C)[C@H]1CC[C@H]2[C@@H]3CC=C4C[C@@H](O[C@@H]5O[C@H](CO)[C@@H](O)[C@H](O)[C@H]5O)CC[C@]4(C)[C@H]3CC[C@]12C)C(C)C has what recorded Activity?
94.6

Quick one: Activity of Cc1cc(=O)c2c(O)c3c(cc2o1)OC(C)(C)[C@@H](O)C3 ?
98.2

Can you share its Activity? I mean this compound: O=C(O)[C@H]1O[C@@H](Oc2cc3oc(-c4ccc(O)cc4)cc(=O)c3c(O)c2O)[C@H](O)[C@@H](O)[C@@H]1O
88.8

Report Activity for COc1ccc(-c2cc(=O)c3c(O)cc(O[C@@H]4O[C@H](COC5OC[C@@H](O)[C@H](O)[C@H]5O)[C@@H](O)[C@H](O)[C@H]4O)cc3o2)cc1O (stereo not given in full) please.
104

Which Activity value belongs to C/C=C(/C)C(=O)O[C@H]1Cc2c(cc3oc(CO)cc(=O)c3c2O)OC1(C)C ?
102

Which Activity value is on record for C=C(C)[C@@H]1CC[C@]2(C(=O)O)CC[C@]3(C)[C@H](CC[C@@H]4[C@@]5(C)CC[C@H](O)C(C)(C)[C@@H]5CC[C@]43C)[C@@H]12 ?
102

Reported Activity for COc1ccc(-c2oc3c(CC=C(C)C)c(O)cc(O)c3c(=O)c2O)cc1 : what is it?
97.9

# input compound: COc1ccc(/C=C/C(=O)O[C@H]2[C@@H]3C=CO[C@@H](O[C@@H]4O[C@H](CO)[C@@H](O)[C@H](O)[C@H]4O)[C@@H]3[C@@]3(CO)O[C@@H]23)cc1O ; wanted: its Activity
107

Need Activity of O=c1c(O)c(-c2cc(O)c(O)c(O)c2)oc2cc(O)cc(O)c12 , thanks.
95.5

Please report the recorded Activity for COc1c(O)cc2oc3cc4c(c(O)c3c(=O)c2c1CC=C(C)C)C=CC(C)(C)O4 .
109

# input compound: CC1(C)CC[C@]2(C)CC[C@]3(C)C(=CC[C@@H]4[C@@]5(C)[C@@H](O)C[C@H](O)C(C)(C)[C@@H]5[C@H](O)C[C@]43C)[C@@H]2C1 ; wanted: its Activity
98.6

Using the record for O=c1cc(-c2ccc(O)cc2)oc2cc(O)c(O)c(O)c12 , report its Activity.
89

What measured Activity goes with CC[C@H](CC[C@@H](C)[C@H]1CC[C@H]2[C@@H]3CC=C4C[C@@H](O)CC[C@]4(C)[C@H]3CC[C@]12C)C(C)C ?
105

Quick one: Activity for C[C@H]1[C@H](C)CC[C@]2(C(=O)O)CC[C@]3(C)C(=CC[C@@H]4[C@@]5(C)CC[C@H](O)C(C)(C)[C@@H]5CC[C@]43C)[C@H]12 ?
102

Bench note: what Activity did O=c1c(O)c(-c2ccccc2)oc2cc(O)cc(O)c12 show?
89.1

Please report the recorded Activity for C=CCc1cc(OC)c(O)c(OC)c1 .
101

Would you kindly share the measured Activity for CC(C)=CCc1c(O)c(CC=C(C)C)c2oc3c(O)cccc3c(=O)c2c1O ?
92.8

What value of Activity has been reported for the following compound? COc1ccc(C(=O)O[C@H]2[C@@H]3C=CO[C@@H](O[C@@H]4O[C@H](CO)[C@@H](O)[C@H](O)[C@H]4O)[C@@H]3[C@@]3(CO)O[C@@H]23)cc1O
102

If you can, please state the reported Activity value of O=C(/C=C/c1ccccc1)NCCCCNC(=O)c1ccc(O)cc1 .
100

Please give the measured Activity for this compound: C=C(C)C(C)CC[C@@H](C)[C@H]1CC[C@@]2(C)[C@@H]3CC[C@H]4C(C)(C)C(=O)CC[C@]4(C)C3=CC[C@]12C (stereo not given in full)
106

Name the recorded Activity for O=C(O)c1cc(O)c(O)c(O)c1 .
97.4

If you can, please state the reported Activity value of CC(C)=CCC[C@](C)(O[C@@H]1O[C@H](CO[C@@H]2O[C@H](CO)[C@@H](O)[C@H](O)[C@H]2O)[C@@H](O)[C@H](O)[C@H]1O)[C@H]1CC[C@]2(C)[C@@H]1[C@H](O)C[C@@H]1[C@@]3(C)CC[C@H](O[C@@H]4O[C@H](CO)[C@@H](O)[C@H](O)[C@H]4O)C(C)(C)[C@@H]3CC[C@]12C .
122

Which Activity is listed for COc1ccc(-c2cc(=O)c3c(O)cc(O[C@@H]4O[C@H](CO)[C@@H](O)[C@H](O)[C@H]4O)cc3o2)cc1O ?
108

// Activity lookup, key: C=C[C@]1(C)CC[C@@]2(C)C3=CCC[C@](C)(CO)[C@@H]3CC[C@@H]2C1
106

Would you kindly share the measured Activity for COc1c2c(cc3oc(C)cc(=O)c13)OC(C(C)(C)O[C@H]1O[C@@H](CO)[C@H](O)[C@@H](O)[C@@H]1O)C2 (stereo not given in full) ?
107

Which Activity is listed for CC[C@H](/C=C/[C@@H](C)[C@H]1CC[C@H]2[C@@H]3CC=C4C[C@@H](O)CC[C@]4(C)[C@H]3CC[C@]12C)C(C)C ?
111

Endpoint output: Activity of CC(C)CCC[C@@H](C)[C@H]1CC[C@H]2[C@@H]3CC=C4C[C@@H](O)CC[C@]4(C)[C@H]3CC[C@]12C . Value?
105
